Attribute: Kd
Target: T1, human interleukin-23 receptor (IL23R) (human, UniProt Q5VWK5 24-355, limits assumed)
T1 construct: also called human IL23R
T1 sequence (looked up): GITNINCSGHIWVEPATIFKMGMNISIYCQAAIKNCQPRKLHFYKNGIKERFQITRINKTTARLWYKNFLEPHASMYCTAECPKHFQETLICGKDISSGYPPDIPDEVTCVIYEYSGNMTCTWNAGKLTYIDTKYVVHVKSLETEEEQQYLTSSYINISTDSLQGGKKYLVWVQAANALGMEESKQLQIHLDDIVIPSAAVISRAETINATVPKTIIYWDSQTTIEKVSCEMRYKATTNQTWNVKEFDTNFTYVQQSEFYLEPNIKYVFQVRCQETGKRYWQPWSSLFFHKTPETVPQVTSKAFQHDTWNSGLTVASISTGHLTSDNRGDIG
Assay: SPR, scFv

| binder | result |
| --- | --- |
| Vκ2/VH3 consensus λ-capped, human IL23R specific scFv (scFv, scFv VL-linker-VH, made in E. coli; also called Vκ2VH3 capped) scFv: DIVMTQSPLSLPVTPGEPASISCQASENIYSFLAWYLQKPGQSPQLLIYSASKLAAGVPDRFSGSGSGTDFTLKISRVEAEDVGVYYCQQTNRYSNPDIYNVFGGGTKLTVLGGGGGSGGGGSGGGGSGGGGSEVQLVESGGGLVQPGGSLRLSCAASGIDFNSNYYMCWVRQAPGKGLEWVSCIYVGSHVNTYYANWAKGRFTISRDNSKNTLYLQMNSLRAEDTAVYYCATSGSSVLYFKFWGQGTLVTVSS | 0.0397 nM |
| Vκ1/VH1B consensus (uncapped), human IL23R specific scFv (scFv, scFv VL-linker-VH, made in E. coli; Vκ framework IV (uncapped, full consensus); also called Vκ1VH1B uncapped) scFv: DIQMTQSPSSLSASVGDRVTITCQASENIYSFLAWYQQKPGKAPKLLIYSASKLAAGVPSRFSGSGSGTDFTLTISSLQPEDFATYYCQQTNRYSNPDIYNVFGQGTKVEIKRGGGGSGGGGSGGGGSGGGGSQVQLVQSGAEVKKPGASVKVSCKASGIDFNSNYYMCWVRQAPGQGLEWMGCIYVGSHVNTYYANWAKGRVTMTRDTSISTAYMELSSLRSEDTAVYYCATSGSSVLYFKFWGQGTLVTVSS | 0.168 nM |
| Vκ3/VH6 consensus λ-capped, human IL23R specific scFv (scFv, scFv VL-linker-VH, made in E. coli; also called Vκ3VH6 capped) scFv: DIVLTQSPATLSLSPGERATLSCQASENIYSFLAWYQQKPGQAPRLLIYSASKLAAGVPARFSGSGSGTDFTLTISSLEPEDFAVYYCQQTNRYSNPDIYNVFGGGTKLTVLGGGGGSGGGGSGGGGSGGGGSQVQLQQSGPGLVKPSQTLSLTCAISGIDFNSNYYMCWIRQSPGRGLEWLGCIYVGSHVNTYYANWAKGRITINPDTSKNQFSLQLNSVTPEDTAVYYCATSGSSVLYFKFWGQGTLVTVSS | 0.394 nM |
| Vκ1/VH1B consensus λ-capped, human IL23R specific scFv (scFv, scFv VL-linker-VH, made in E. coli; also called Vκ1VH1B capped) scFv: DIQMTQSPSSLSASVGDRVTITCQASENIYSFLAWYQQKPGKAPKLLIYSASKLAAGVPSRFSGSGSGTDFTLTISSLQPEDFATYYCQQTNRYSNPDIYNVFGGGTKLTVLGGGGGSGGGGSGGGGSGGGGSQVQLVQSGAEVKKPGASVKVSCKASGIDFNSNYYMCWVRQAPGQGLEWMGCIYVGSHVNTYYANWAKGRVTMTRDTSISTAYMELSSLRSEDTAVYYCATSGSSVLYFKFWGQGTLVTVSS | 0.199 nM |

// below: Kd requested for another binder
Give its Kd value. Item: Vκ1/VH6 consensus (uncapped), human IL23R specific scFv (scFv, scFv VL-linker-VH, made in E. coli; Vκ framework IV (uncapped, full consensus); also called Vκ1VH6 uncapped) scFv: DIQMTQSPSSLSASVGDRVTITCQASENIYSFLAWYQQKPGKAPKLLIYSASKLAAGVPSRFSGSGSGTDFTLTISSLQPEDFATYYCQQTNRYSNPDIYNVFGQGTKVEIKRGGGGSGGGGSGGGGSGGGGSQVQLQQSGPGLVKPSQTLSLTCAISGIDFNSNYYMCWIRQSPGRGLEWLGCIYVGSHVNTYYANWAKGRITINPDTSKNQFSLQLNSVTPEDTAVYYCATSGSSVLYFKFWGQGTLVTVSS 0.251 nM
